- Measured target: Zap1 (UniProt P47043)
- Sequence: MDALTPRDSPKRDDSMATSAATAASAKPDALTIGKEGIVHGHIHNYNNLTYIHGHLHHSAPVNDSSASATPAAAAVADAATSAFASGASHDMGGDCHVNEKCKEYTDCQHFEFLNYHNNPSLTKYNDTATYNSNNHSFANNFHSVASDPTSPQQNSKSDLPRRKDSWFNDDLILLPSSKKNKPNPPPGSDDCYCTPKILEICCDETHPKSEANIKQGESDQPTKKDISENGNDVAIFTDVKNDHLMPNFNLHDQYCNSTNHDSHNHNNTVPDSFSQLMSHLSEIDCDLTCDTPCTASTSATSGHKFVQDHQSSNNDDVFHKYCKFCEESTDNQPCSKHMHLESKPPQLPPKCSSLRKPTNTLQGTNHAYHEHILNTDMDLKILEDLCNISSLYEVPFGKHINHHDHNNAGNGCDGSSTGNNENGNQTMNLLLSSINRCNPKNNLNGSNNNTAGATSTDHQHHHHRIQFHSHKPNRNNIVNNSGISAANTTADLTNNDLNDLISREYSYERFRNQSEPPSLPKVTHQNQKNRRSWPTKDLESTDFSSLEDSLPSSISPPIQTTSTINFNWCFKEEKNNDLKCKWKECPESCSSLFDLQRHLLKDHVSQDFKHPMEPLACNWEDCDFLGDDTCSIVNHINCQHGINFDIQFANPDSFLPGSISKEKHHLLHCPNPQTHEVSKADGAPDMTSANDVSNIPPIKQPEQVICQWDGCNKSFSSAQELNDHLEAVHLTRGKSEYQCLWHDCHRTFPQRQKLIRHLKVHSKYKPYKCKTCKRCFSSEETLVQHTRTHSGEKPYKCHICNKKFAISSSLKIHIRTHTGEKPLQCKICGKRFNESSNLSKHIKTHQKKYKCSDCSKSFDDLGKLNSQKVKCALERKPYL
- Experiment notes: PBM E-score (8-mer binding enrichment) (E-score (-0.5 to 0.5)); higher = stronger / more preferred TF binding
- Settings: protein concentration: 200 nM; construct: GST-full length
The full ranking holds about 33,000 sequences; the median of “E-score (-0.5 to 0.5)” is about -0.021, and the highest 2% start at about 0.32. Shown is part of a subset that was picked to be rich in the highest values.
# key: entry, value: PBM E-score
Lab note: record the figure alone, no unit after it.

Check out these entries, answers already filled in.
- Ordered residues: "CTGGTCAC"
  PBM E-score: 0.148
- Ordered residues: "AGTGGTTA"
  PBM E-score: 0.434
- Ordered residues: "GATTCCTA"
  PBM E-score: 0.0308

Ask | Given the entry CCGATCGG , what PBM E-score was observed with Zap1 (UniProt P47043)?
Reply | 0.13

Ask | Given the entry CTAATGGC , what PBM E-score was observed with Zap1 (UniProt P47043)?
Reply | 0.134

Ask | Given the entry CGCCTCAA , what PBM E-score was observed with Zap1 (UniProt P47043)?
Reply | -0.107

###

- Measured target: Zap1 (UniProt P47043)
- Sequence: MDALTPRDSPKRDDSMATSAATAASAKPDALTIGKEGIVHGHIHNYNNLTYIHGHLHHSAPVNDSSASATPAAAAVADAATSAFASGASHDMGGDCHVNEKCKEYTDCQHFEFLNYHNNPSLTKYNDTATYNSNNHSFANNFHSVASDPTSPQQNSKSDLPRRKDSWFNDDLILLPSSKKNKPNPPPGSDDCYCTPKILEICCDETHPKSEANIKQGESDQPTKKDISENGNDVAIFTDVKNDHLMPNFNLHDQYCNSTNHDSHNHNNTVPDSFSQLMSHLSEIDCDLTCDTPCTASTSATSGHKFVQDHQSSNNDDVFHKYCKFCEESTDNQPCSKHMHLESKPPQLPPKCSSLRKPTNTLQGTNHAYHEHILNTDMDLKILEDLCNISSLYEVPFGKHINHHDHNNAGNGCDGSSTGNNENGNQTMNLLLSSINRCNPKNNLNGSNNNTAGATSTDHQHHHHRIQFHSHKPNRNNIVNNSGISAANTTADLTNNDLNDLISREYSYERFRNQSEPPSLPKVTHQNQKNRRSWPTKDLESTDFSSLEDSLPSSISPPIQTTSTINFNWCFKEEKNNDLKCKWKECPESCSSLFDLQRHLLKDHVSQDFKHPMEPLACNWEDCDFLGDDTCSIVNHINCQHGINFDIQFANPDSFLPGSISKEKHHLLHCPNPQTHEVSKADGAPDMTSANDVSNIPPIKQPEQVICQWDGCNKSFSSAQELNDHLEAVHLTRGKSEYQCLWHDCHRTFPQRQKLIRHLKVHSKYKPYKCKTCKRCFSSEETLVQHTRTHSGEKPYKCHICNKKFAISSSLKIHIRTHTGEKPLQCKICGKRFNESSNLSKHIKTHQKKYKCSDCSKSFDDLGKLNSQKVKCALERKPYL
- Experiment notes: PBM E-score (8-mer binding enrichment) (E-score (-0.5 to 0.5)); higher = stronger / more preferred TF binding
- Settings: protein concentration: 200 nM; construct: GST-full length
Whole data set: some 33,000 sequences, median “E-score (-0.5 to 0.5)” near -0.021, cut for the highest 2% near 0.32. Only a selection was taken, and the highest values are over-represented in it overall.
Measured parameter: PBM E-score
Lab note: record the figure alone, no unit after it.

- Ordered residues: "GATTCTAA"
  Measured parameter: "PBM E-score"
  Recorded measurement: -0.0858

Ask | GET /values?readout=PBM E-score&item= TAGGACGA
Reply | -0.113

Ask | GET /values?readout=PBM E-score&item= AGGGTTTG
Reply | 0.292

Ask | GET /values?readout=PBM E-score&item= TCACGCAA
Reply | 0.0552

###

# key: entry, value: PBM E-score
- Measured target: Zap1 (UniProt P47043)
- Sequence: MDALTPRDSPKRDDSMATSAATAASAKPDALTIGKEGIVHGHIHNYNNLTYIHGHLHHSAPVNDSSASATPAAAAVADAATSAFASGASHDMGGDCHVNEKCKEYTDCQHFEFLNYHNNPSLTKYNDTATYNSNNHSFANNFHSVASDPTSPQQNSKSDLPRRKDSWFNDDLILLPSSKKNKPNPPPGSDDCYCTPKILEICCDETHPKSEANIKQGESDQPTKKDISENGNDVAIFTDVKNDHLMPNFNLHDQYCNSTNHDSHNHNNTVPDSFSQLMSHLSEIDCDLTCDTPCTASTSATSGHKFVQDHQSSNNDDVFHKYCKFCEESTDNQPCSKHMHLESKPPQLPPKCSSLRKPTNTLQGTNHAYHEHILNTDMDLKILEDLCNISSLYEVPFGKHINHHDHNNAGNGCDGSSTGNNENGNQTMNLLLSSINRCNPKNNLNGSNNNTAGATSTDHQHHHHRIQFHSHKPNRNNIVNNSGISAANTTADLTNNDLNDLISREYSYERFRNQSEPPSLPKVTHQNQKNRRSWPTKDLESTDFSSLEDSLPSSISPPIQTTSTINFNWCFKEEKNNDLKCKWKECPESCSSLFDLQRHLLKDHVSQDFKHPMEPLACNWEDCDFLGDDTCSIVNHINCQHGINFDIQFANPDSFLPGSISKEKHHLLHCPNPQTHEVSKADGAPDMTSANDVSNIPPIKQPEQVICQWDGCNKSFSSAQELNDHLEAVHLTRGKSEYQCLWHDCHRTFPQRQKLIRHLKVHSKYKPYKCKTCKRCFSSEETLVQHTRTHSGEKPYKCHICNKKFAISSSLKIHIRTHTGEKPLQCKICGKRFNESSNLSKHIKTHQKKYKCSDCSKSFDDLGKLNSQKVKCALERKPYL
- Experiment notes: PBM E-score (8-mer binding enrichment) (E-score (-0.5 to 0.5)); higher = stronger / more preferred TF binding
- Settings: protein concentration: 200 nM; construct: GST-full length
The full ranking holds about 33,000 sequences; the median of “E-score (-0.5 to 0.5)” is about -0.021, and the highest 2% start at about 0.32. The entries come from a sample that favours the highest values as a whole.
Lab note: record the figure alone, no unit after it.

- Ordered residues: "TGAGTGCA"
  Measured parameter: "PBM E-score"
  Recorded measurement: -0.113
- Ordered residues: "CTGTTATC"
  Measured parameter: "PBM E-score"
  Recorded measurement: 0.0763
- Ordered residues: "AGTCTTAG"
  Measured parameter: "PBM E-score"
  Recorded measurement: -0.182
- Ordered residues: "CGGGTCGC"
  Measured parameter: "PBM E-score"
  Recorded measurement: 0.0356
- Ordered residues: "AAAGGTGA"
  Measured parameter: "PBM E-score"
  Recorded measurement: 0.25
- Ordered residues: "AGGGTCAC"
  Measured parameter: "PBM E-score"
  Recorded measurement: 0.417
- Ordered residues: "GAAGGTAA"
  Measured parameter: "PBM E-score"
  Recorded measurement: 0.319
- Ordered residues: "AGGGTCAA"
  Measured parameter: "PBM E-score"
  Recorded measurement: 0.416
- Ordered residues: "CGGGTTAC"
  Measured parameter: "PBM E-score"
  Recorded measurement: 0.439
- Ordered residues: "TACAAGTA"
  Measured parameter: "PBM E-score"
  Recorded measurement: 0.0103

Ask | GET /values?readout=PBM E-score&item= TCGGGTCA
Reply | 0.233

Ask | GET /values?readout=PBM E-score&item= CGTCATGA
Reply | 0.0742
